tested on: Aspergillus fumigatus IFO8868
Measurement name: MIC (µg/mL)
Give the quantity in µg/mL, number only.

Molecule | Readout units | MIC
O=C(NC1CCCCC1)C(F)(F)C(O)(Cn1cncn1)c1ccc(F)cc1F (centres unmarked) | µg/mL | 100
NC(=O)C(F)(F)C(O)(Cn1cncn1)c1ccc(F)cc1Cl (single isomer, unassigned) [Example 146] | µg/mL | 50
O=C(NCc1ccc(Cl)cc1)C(F)(F)C(O)(Cn1cncn1)c1ccc(F)cc1F (centres unmarked) | µg/mL | 12.5

Problem: Which MIC is listed for O=C(NC1CC1)C(F)(F)C(O)(Cn1cncn1)c1ccc(F)cc1F (centres unmarked) [Example 19] ?
Solution: 50

Problem: What value of MIC has been reported for the following molecule? Cc1ccc(NC(=O)C(F)(F)C(O)(Cn2cncn2)c2ccc(F)cc2F)c(C)c1 (centres unmarked)
Solution: 1.56

Problem: Item N#CCc1ccc(NC(=O)C(F)(F)C(O)(Cn2cncn2)c2ccc(F)cc2F)cc1 (centres unmarked) has what recorded MIC?
Solution: 12.5

Problem: # query: MIC of entry CNC(=O)C(F)(F)C(O)(Cn1cncn1)c1ccccc1F (centres unmarked)
Solution: 50

Problem: Requested read-out: MIC. Entry: O=C(NC1CC1)C(F)(F)C(O)(Cn1cncn1)c1ccccc1F (centres unmarked)
Solution: 25

----------
Below: a set of entries, each annotated with reported Relative therapeutic index.
tested on: Aspergillus fumigatus IFO8868; experiment: Therapeutic effect, oral, mice infected with Aspergillus fumigatus IFO8868 (4), Table 2d; assay type: in vivo; conditions: average survival days of Ketoconazole taken as 100; Aspergillus fumigatus 5.8×10^6 cells/mouse i.v.; 0.8 mg/mouse oral, 2 hours after infection and once daily for six consecutive days; 10 days observation; 10 mice
Answer field: number only, no words.

Compound | Relative therapeutic index
CNC(=O)C(F)(F)C(O)(Cn1cncn1)c1ccc(F)cc1Cl (stereo not drawn) [Example 80] | 416
CNC(=O)C(F)(F)C(O)(Cn1cncn1)c1ccc(F)cc1F (single isomer, unassigned) [Example 143] | 242
CCNC(=O)C(F)(F)C(O)(Cn1cncn1)c1ccc(F)cc1F (stereo not drawn) | 237

Problem: Entry O=C(NC1CC1)C(F)(F)C(O)(Cn1cncn1)c1ccc(F)cc1F (single isomer, unassigned) [Example 145] has what Relative therapeutic index?
Solution: 353

Problem: For O=C(NC1CC1)C(F)(F)C(O)(Cn1cncn1)c1ccc(F)cc1F (stereo not drawn) [Example 19] , what is its reported Relative therapeutic index?
Solution: 253

Problem: What Relative therapeutic index value was documented for this compound, NC(=O)C(F)(F)C(O)(Cn1cncn1)c1ccc(F)cc1F (stereo not drawn) [Example 10] ?
Solution: 200

Problem: Consider the compound shown here: NC(=O)C(F)(F)C(O)(Cn1cncn1)c1ccc(F)cc1F (single isomer, unassigned) [Example 142] What is its recorded Relative therapeutic index?
Solution: 216

Problem: Fill in the blank: the reported Relative therapeutic index of NC(=O)C(F)(F)C(O)(Cn1cncn1)c1ccc(F)cc1Cl (single isomer, unassigned) [Example 146] is ____.
Solution: 500

Problem: # input compound: NC(=O)C(F)(F)C(O)(Cn1cncn1)c1ccc(F)cc1Cl (stereo not drawn) [Example 79] ; wanted: its Relative therapeutic index
Solution: 400

Problem: Entry CNC(=O)C(F)(F)C(O)(Cn1cncn1)c1ccc(F)cc1Cl (single isomer, unassigned) [Example 147] has what Relative therapeutic index?
Solution: 526

Problem: GET /values?readout=Relative therapeutic index&item= O=C(NC1CC1)C(F)(F)C(O)(Cn1cncn1)c1ccc(F)cc1Cl (stereo not drawn)
Solution: 358

Problem: Please look up its Relative therapeutic index: CNC(=O)C(F)(F)C(O)(Cn1cncn1)c1ccc(F)cc1F (stereo not drawn) [Example 11]
Solution: 174

----------
tested on: Aspergillus fumigatus IFO8868
Friendly reminder: MIC below 50 µg/mL is criterion met, at or above is criterion not met.

Examples with answers:
Molecule | Qualitative label
O=C(NC1CC1)C(F)(F)C(O)(Cn1cncn1)c1ccc(F)cc1Cl (centres unmarked) [Example 30] | criterion met
Cc1ccc(NC(=O)C(F)(F)C(O)(Cn2cncn2)c2ccc(F)cc2F)cc1 (centres unmarked) [Example 43] | criterion met
CCNC(=O)C(F)(F)C(O)(Cn1cncn1)c1ccccc1Cl (centres unmarked) [Example 75] | criterion met

Problem: Determine whether this molecule shows MIC lower than 50 µg/mL (ties excluded): CNC(=O)C(F)(F)C(O)(Cn1cncn1)c1ccc(F)cc1F (centres unmarked) [Example 11]
Solution: criterion not met

----------
test system: Candida albicans ON28
// NB: equality with 0.2 µg/mL counts as No; only MIC strictly below is Yes

Solved cases below.
Compound | Assay target | Qualitative label
Cc1ccc(NC(=O)C(F)(F)C(O)(Cn2cncn2)c2ccc(F)cc2F)cc1 (stereo not drawn) | Candida albicans ON28 | Yes
CC1(NC(=O)C(F)(F)C(O)(Cn2cncn2)c2ccc(F)cc2F)CC1 (stereo not drawn) | Candida albicans ON28 | Yes
CCNC(=O)C(F)(F)C(O)(Cn1cncn1)c1ccccc1 (stereo not drawn) | Candida albicans ON28 | No
NC(=O)C(F)(Cc1ccccc1)C(O)(Cn1cncn1)c1ccc(F)cc1F (stereo not drawn) | Candida albicans ON28 | No
CNC(=O)C(F)(F)C(O)(Cn1cncn1)c1ccccc1F (stereo not drawn) | Candida albicans ON28 | No
COc1ccccc1NC(=O)C(F)(F)C(O)(Cn1cncn1)c1ccc(F)cc1F (stereo not drawn) | Candida albicans ON28 | Yes
O=C(NC1CCCCC1)C(F)(F)C(O)(Cn1cncn1)c1ccc(F)cc1F (stereo not drawn) | Candida albicans ON28 | Yes
O=C(NC1CC1)C(F)(F)C(O)(Cn1cncn1)c1ccc(F)cc1F (single isomer, unassigned) [Example 145] | Candida albicans ON28 | Yes

Problem: Hello, is MIC of the following compound strictly smaller than 0.2 µg/mL? CCNC(=O)C(F)(F)C(O)(Cn1cncn1)c1ccc(F)cc1F (single isomer, unassigned) [Example 144]
Solution: Yes

Problem: For the compound O=C(NC1CC1)C(F)(F)C(O)(Cn1cncn1)c1ccccc1Cl (stereo not drawn) , is MIC under 0.2 µg/mL?
Solution: No

Problem: Is it true that MIC reported for Cc1ccc(NC(=O)C(F)(F)C(O)(Cn2cncn2)c2ccc(F)cc2F)c(C)c1 (stereo not drawn) is less than 0.2 µg/mL?
Solution: Yes

Problem: Is the reported MIC for C=CCNC(=O)C(F)(F)C(O)(Cn1cncn1)c1ccc(F)cc1F (stereo not drawn) strictly below 0.2 µg/mL?
Solution: Yes

Problem: Determine if O=C(NC1CC1)C(F)(F)C(O)(Cn1cncn1)c1ccccc1F (stereo not drawn) shows MIC strictly lower than 0.2 µg/mL.
Solution: No

----------
# Aspergillus fumigatus IFO8868: MIC values follow
Just the number in µg/mL, nothing appended.

Solved entries (count: 2):
Compound | Readout units | MIC
O=C(Nc1ccc(C(F)(F)F)cc1)C(F)(F)C(O)(Cn1cncn1)c1ccc(F)cc1F (stereo not drawn) | µg/mL | 12.5
COc1ccc(NC(=O)C(F)(F)C(O)(Cn2cncn2)c2ccc(F)cc2F)cc1 (stereo not drawn) | µg/mL | 12.5

Problem: GET /values?readout=MIC&system=Aspergillus fumigatus IFO8868&item= O=C(NC1CC1)C(F)(F)C(O)(Cn1cncn1)c1ccc(F)cc1F (single isomer, unassigned) [Example 145]
Solution: 12.5

----------
system: Candida albicans ON28
We label by threshold. Values of MIC strictly beneath 0.2 µg/mL are satisfied. Values of 0.2 µg/mL and up are not satisfied.

Below are worked cases with known answers.
Compound | Qualitative label
CCNC(=O)C(F)(F)C(O)(Cn1cncn1)c1ccccc1F (centres unmarked) | not satisfied
O=C(NC1(c2ccc(Cl)cc2)CC1)C(F)(F)C(O)(Cn1cncn1)c1ccc(F)cc1F (centres unmarked) | satisfied
CCNC(=O)C(F)(F)C(O)(Cn1cncn1)c1ccc(Cl)cc1F (centres unmarked) | satisfied
NC(=O)C(F)(F)C(O)(Cn1cncn1)c1ccc(F)cc1F (single isomer, unassigned) | not satisfied

Problem: Item O=C(Nc1ccc(Cl)cc1)C(F)(F)C(O)(Cn1cncn1)c1ccc(F)cc1F (centres unmarked) : MIC beneath 0.2 µg/mL, strictly?
Solution: satisfied

Problem: Given CCNC(=O)C(F)(F)C(O)(Cn1cncn1)c1cc(F)ccc1F (centres unmarked) , is recorded MIC strictly lower than 0.2 µg/mL?
Solution: not satisfied

Problem: Quick check: does CCCCNC(=O)C(F)(F)C(O)(Cn1cncn1)c1ccc(F)cc1F (centres unmarked) have MIC under 0.2 µg/mL?
Solution: satisfied

Problem: Report whether reported MIC is lower than 0.2 µg/mL (strictly) for O=C(NCc1ccc(Cl)cc1)C(F)(F)C(O)(Cn1cncn1)c1ccc(F)cc1F (centres unmarked)
Solution: satisfied

Problem: State whether 0.2 µg/mL exceeds MIC recorded for CC(C)CNC(=O)C(F)(F)C(O)(Cn1cncn1)c1ccc(F)cc1F (centres unmarked) .
Solution: satisfied

Problem: Strictly below 0.2 µg/mL: is that where MIC of NC(=O)C(F)(F)C(O)(Cn1cncn1)c1ccc(F)cc1Cl (single isomer, unassigned) [Example 146] sits?
Solution: not satisfied

Problem: Is the reported MIC for O=C(NC1CCCC1)C(F)(F)C(O)(Cn1cncn1)c1ccc(F)cc1F (centres unmarked) strictly below 0.2 µg/mL?
Solution: satisfied

These data points were gathered from patent US5605921A.
